I'd appreciate it if you could supply inhibition of SARS-CoV-2 cytopathic effect values for the items below.
- Tested on: Vero E6 infected with SARS-CoV-2
- ASSAY PROTOCOL: inhibition of SARS-CoV-2 cytopathic effect; higher = more antiviral protection, active = above 15
- MEASUREMENT PARAMETERS: 100 nM; 48 h
// return numeric value only (unit: %, not printed)

Q: Please give the measured inhibition of SARS-CoV-2 cytopathic effect for this compound: O=C(CN1C2=NCCN2c2ccccc21)c1ccc(-c2ccccc2)cc1
A: 1.71

Q: Please give the measured inhibition of SARS-CoV-2 cytopathic effect for this compound: Cc1nc(NC(=O)N2CCC[C@H]2C(N)=O)sc1-c1ccnc(C(C)(C)C(F)(F)F)c1 [alpelisib]
A: 0.01

Q: Please give the measured inhibition of SARS-CoV-2 cytopathic effect for this compound: OC(c1ccccc1)(c1ccccc1)C12CC[N+](CCOCc3ccccc3)(CC1)CC2 [umeclidinium]
A: 0.73

Q: Please give the measured inhibition of SARS-CoV-2 cytopathic effect for this compound: CCn1c(=O)c2c(nc(/C=C/c3ccc(OC)c(OC)c3)n2C)n(CC)c1=O [istradefylline]
A: -0.91

Q: Please give the measured inhibition of SARS-CoV-2 cytopathic effect for this compound: Cc1cc2sc(NC(=O)Cc3ccccc3)nc2cc1Cl
A: 2.19

Q: Please give the measured inhibition of SARS-CoV-2 cytopathic effect for this compound: NC(=O)[C@@H](CC1CC1)[C@@H](CCC(F)(F)F)C(=O)N[C@H]1N=C(c2ccccc2)c2cccc(F)c2NC1=O
A: -3.47

Q: Please give the measured inhibition of SARS-CoV-2 cytopathic effect for this compound: CCC1=C[C@@H]2CN3CCc4c([nH]c5ccccc45)[C@@](C(=O)OC)(C2)[C@@H]13 [catharanthine]
A: 0.47

Q: Please give the measured inhibition of SARS-CoV-2 cytopathic effect for this compound: O=C(O)c1cccnc1C(=O)O [quinolinic-acid]
A: 0.73

Q: Please give the measured inhibition of SARS-CoV-2 cytopathic effect for this compound: CC(C)(C)NCC(O)COc1cccc2[nH]c(C#N)cc12 (centres undefined) [cyanopindolol]
A: 0.47

Q: Please give the measured inhibition of SARS-CoV-2 cytopathic effect for this compound: C[n+]1c2cc(N)ccc2cc2ccc(N)cc21 [acriflavinium]
A: -2.84

Q: Please give the measured inhibition of SARS-CoV-2 cytopathic effect for this compound: O=S(=O)(O)c1ccc(-c2c3nc(c(-c4ccc(S(=O)(=O)O)cc4)c4ccc([nH]4)c(-c4ccc(S(=O)(=O)O)cc4)c4nc(c(-c5ccc(S(=O)(=O)O)cc5)c5ccc2[nH]5)C=C4)C=C3)cc1
A: -5.47

Q: Please give the measured inhibition of SARS-CoV-2 cytopathic effect for this compound: CCOC(=O)/C=C(C)/C=C/C=C(C)/C=C/c1c(C)cc(OC)c(C)c1C [etretinate]
A: 0.84

Q: Please give the measured inhibition of SARS-CoV-2 cytopathic effect for this compound: CCNCCCNCCCCNCCCNCC
A: 3.25

Q: Please give the measured inhibition of SARS-CoV-2 cytopathic effect for this compound: N[C@@H](CC(=O)N1CCn2c(nnc2C(F)(F)F)C1)Cc1cc(F)c(F)cc1F [sitagliptin]
A: 2.43

Q: Please give the measured inhibition of SARS-CoV-2 cytopathic effect for this compound: C(#Cc1nc2ncccc2nc1OCCN1CCCC1)c1ccccc1
A: -1.72

Q: Please give the measured inhibition of SARS-CoV-2 cytopathic effect for this compound: CCCCCCCCCCCCCCCCCC(=O)OCC(O)CO (centres undefined) [monostearin]
A: 0.45

Q: Please give the measured inhibition of SARS-CoV-2 cytopathic effect for this compound: CC(=O)c1ccc2c(c1)[C@H](NC(=O)c1ccc(F)c(Cl)c1)[C@H](O)C(C)(C)O2 [tonabersat]
A: -0.8

Q: Please give the measured inhibition of SARS-CoV-2 cytopathic effect for this compound: CC[C@H](C)[C@H](NC(=O)[C@H](Cc1ccc(O)cc1)NC(=O)[C@@H](NC(=O)[C@H](CCCNC(=N)N)NC(=O)[C@@H](N)CC(=O)O)C(C)C)C(=O)N[C@@H](Cc1c[nH]cn1)C(=O)N1CCC[C@H]1C(=O)O
A: 0.18

Q: Please give the measured inhibition of SARS-CoV-2 cytopathic effect for this compound: Nc1nc(O)c2nc(Br)n([C@@H]3O[C@@H]4COP(=O)(O)O[C@H]4[C@H]3O)c2n1 [8-bromo-cGMP]
A: 2.06

Q: Please give the measured inhibition of SARS-CoV-2 cytopathic effect for this compound: CNC(=O)c1ccc(Nc2ncc(C(F)(F)F)c(NCc3nccnc3N(C)S(C)(=O)=O)n2)cc1 [defactinib]
A: -0.22

Q: Please give the measured inhibition of SARS-CoV-2 cytopathic effect for this compound: CC(C)(N)C(=O)N[C@H](COCc1ccccc1)C(=O)N1CCC2(CC1)CN(S(C)(=O)=O)c1ccccc12 [ibutamoren]
A: 0.93

Q: Please give the measured inhibition of SARS-CoV-2 cytopathic effect for this compound: CC(COc1ccccc1Cc1ccccc1)N1CCCCC1 (centres undefined) [benproperine]
A: -0.71

Q: Please give the measured inhibition of SARS-CoV-2 cytopathic effect for this compound: O=Cc1cn(Cc2ccc(Cl)cc2)c2ccccc12 [oncrasin-1]
A: 2.77

Q: Please give the measured inhibition of SARS-CoV-2 cytopathic effect for this compound: COC[C@H](NC(=O)c1cnc(C)s1)C(=O)N[C@@H](COC)C(=O)N[C@@H](Cc1ccccc1)C(=O)[C@@]1(C)CO1 [oprozomib]
A: 38.6

Q: Please give the measured inhibition of SARS-CoV-2 cytopathic effect for this compound: CN1CC2c3ccccc3Oc3ccc(Cl)cc3C2C1 (centres undefined) [asenapine]
A: 1.72

Q: Please give the measured inhibition of SARS-CoV-2 cytopathic effect for this compound: COc1ccccc1OCCNCC(O)COc1cccc2[nH]c3ccccc3c12 (centres undefined) [carvedilol]
A: 0.32

Q: Please give the measured inhibition of SARS-CoV-2 cytopathic effect for this compound: CCOc1c2c(c(OCC)c3ccccc13)C(=O)N(c1ccc(CC(=O)NS(=O)(=O)c3ccccc3)cc1)C2
A: 0.73

Q: Please give the measured inhibition of SARS-CoV-2 cytopathic effect for this compound: CN1CCC(=C2c3ccccc3Sc3ccccc32)CC1 [pimethixene]
A: -0.63

Q: Please give the measured inhibition of SARS-CoV-2 cytopathic effect for this compound: CCCNC(=O)N1N=C(c2ccc(N)cc2)c2cc3c(cc2C1C)OCO3 (centres undefined)
A: 1.6
